# Tested on: P388 leukemia ip, CD2F1 mice, survival T/C
# Method Notes: NCI In Vivo Anticancer Drug Screen. Data for tumor model P388 Leukemia (intraperitoneal) in CD2F1 (CDF1) mice
# Test Context: endpoint: median survival time; dose: 200.0 mg/kg/injection; schedule: Q01DX005 (ip); vehicle: Klucel + Tween-80; higher = longer survival
Inconclusive results and toxic doses are left out.
For each of the compounds below, state its T/C.

Problem: Bench note: what T/C did O=C1c2ccccc2C(=O)c2c(O)ccc3cccc1c23 show?
Solution: 92 % of control

Problem: Please look up its T/C: CCOC(=O)CN1C(=S)N(c2ccc(C)cc2)C(=Nc2ccc(C)cc2)C1=Nc1ccc(C)cc1
Solution: 90 % of control

Problem: T/C for C(=N\N1CCCCCC1)/c1c2ccccc2cc2ccccc12 ?
Solution: 92 % of control

Problem: Query (compound): CCOC(=O)C1n2c(=O)n(-c3ccccc3)c(=O)n21 ; field requested: T/C
Solution: 93 % of control
